Biological target: IL-23 (human, p19/p40 heterodimer) (Homo sapiens, UniProt Q9NPF7;P29460 SEQ:20-189,SEQ:23-328)
Sequence (Q9NPF7 20-189, chain 1 of 2): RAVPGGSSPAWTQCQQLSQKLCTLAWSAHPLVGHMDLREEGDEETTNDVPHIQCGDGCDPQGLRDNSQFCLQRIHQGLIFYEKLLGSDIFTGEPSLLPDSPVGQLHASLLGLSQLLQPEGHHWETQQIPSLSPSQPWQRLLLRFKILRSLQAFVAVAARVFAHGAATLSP
Sequence (P29460 23-328, chain 2 of 2): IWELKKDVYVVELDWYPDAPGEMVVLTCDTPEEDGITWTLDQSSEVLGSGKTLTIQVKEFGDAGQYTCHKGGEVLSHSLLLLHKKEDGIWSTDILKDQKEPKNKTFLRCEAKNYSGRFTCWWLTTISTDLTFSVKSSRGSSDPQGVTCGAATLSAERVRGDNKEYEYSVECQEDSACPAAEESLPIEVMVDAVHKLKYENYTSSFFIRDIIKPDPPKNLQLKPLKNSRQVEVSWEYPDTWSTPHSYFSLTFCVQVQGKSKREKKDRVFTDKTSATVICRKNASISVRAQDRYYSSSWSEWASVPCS
Assay: competition; 1X PBS, 0.1 mg/mL BSA; direct binding Kd 40 nM with tRNA
Details: tags: R&D Systems, carrier free; label: 5'-32P; G4 (predicted)
MEASUREMENT LABEL: Kd (nM)
Give the quantity in nM, number only.

May I ask what Kd has been recorded for CGAUAUAGGCGGUACGGGGGGAGUGGGCUGGGGUCG (mixed, 2'-deoxy A and G, 2'-OMe C and U (dRmY)) [ARC795] ?
4
